- tgt: alpha 1B subtype (Rattus norvegicus)
- Construct: from tissue; host or cells: rat liver homogenate/membranes
- Sequence (P15823 1-515): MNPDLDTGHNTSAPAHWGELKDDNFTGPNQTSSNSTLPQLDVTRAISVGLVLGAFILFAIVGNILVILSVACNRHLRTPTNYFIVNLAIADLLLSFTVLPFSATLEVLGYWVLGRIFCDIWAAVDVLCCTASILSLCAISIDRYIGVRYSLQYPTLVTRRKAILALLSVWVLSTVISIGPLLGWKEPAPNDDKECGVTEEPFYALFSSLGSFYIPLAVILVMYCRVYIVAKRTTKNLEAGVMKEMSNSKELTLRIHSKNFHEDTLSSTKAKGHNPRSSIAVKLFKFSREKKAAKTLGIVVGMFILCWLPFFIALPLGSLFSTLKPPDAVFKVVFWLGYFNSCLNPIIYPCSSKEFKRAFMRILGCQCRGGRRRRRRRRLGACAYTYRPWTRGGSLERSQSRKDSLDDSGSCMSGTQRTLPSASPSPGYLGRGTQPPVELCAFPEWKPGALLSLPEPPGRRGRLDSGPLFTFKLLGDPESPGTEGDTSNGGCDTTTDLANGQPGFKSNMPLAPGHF
- assay-name: [3H]prazosin binding assay in rat liver
parameter: pIC50
// scale note: pIC50 = -log10(conc_M); give the bare number

pIC50 for COc1ccccc1N1CCN(CCc2ccc3c(c2)OCO3)CC1 [LASSBio 772] is 6.35

###

- tgt: H1 receptors (Cavia porcellus)
- Sequence (P31389 whole entry): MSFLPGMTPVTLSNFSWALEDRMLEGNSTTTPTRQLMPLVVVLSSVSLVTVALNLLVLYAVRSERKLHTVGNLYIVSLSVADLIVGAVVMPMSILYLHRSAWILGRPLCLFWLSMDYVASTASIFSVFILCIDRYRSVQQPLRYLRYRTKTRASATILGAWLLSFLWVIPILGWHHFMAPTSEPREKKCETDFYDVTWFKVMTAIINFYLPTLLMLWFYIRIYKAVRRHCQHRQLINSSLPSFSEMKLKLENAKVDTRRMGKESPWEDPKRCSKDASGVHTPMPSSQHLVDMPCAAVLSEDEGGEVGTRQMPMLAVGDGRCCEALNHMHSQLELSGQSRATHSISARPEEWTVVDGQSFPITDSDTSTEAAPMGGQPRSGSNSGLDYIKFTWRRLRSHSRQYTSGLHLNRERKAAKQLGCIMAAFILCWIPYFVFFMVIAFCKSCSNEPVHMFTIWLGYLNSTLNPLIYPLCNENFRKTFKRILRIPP
- assay-name: Cobaio (guinea pig) trachea contraction induced by histamine
- measurement-conditions: histamine 100 microM, compound 3 nM-30 microM
parameter: IC50 (nM)
Entry rule: numbers only, all in nM.

IC50 for COc1ccccc1N1CCN(CCc2ccc3c(c2)OCO3)CC1 is 309

###

- tgt: alpha 1A subtype (Rattus norvegicus, UniProt P43140)
- Sequence (P43140 whole entry): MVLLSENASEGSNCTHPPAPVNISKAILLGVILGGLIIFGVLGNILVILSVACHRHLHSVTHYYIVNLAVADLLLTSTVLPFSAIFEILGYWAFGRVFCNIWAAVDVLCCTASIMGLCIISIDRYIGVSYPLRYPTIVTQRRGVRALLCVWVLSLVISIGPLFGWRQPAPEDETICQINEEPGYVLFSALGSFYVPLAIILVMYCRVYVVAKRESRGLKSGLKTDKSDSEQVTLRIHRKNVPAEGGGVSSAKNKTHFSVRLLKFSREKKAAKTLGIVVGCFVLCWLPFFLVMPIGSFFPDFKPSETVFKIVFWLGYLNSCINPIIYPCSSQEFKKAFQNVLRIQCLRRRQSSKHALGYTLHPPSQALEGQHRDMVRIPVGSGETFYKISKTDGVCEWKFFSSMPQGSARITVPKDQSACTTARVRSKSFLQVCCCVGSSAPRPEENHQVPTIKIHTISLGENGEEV
parameter: Ki (nM)
Entry rule: numbers only, all in nM.

Ki for COc1ccccc1N1CCN(CCc2ccc3c(c2)OCO3)CC1 [LASSBio 772] is 0.14

###

- tgt: alpha 1A subtype (Rattus norvegicus, UniProt P43140)
- assay-name: [3H]prazosin binding assay in rat salivary gland
parameter: pIC50
// scale note: pIC50 = -log10(conc_M); give the bare number

pIC50 for COc1ccccc1N1CCN(CCc2ccc3c(c2)OCO3)CC1 [LASSBio 772] is 9.59
